FYI, the data here is from PubChem BioAssay (NCI).

Tested on: SR leukemia
method.notes: NCI tumour cell line growth inhibition, 48 h
measured.quantity: TGI (µM)
Number in µM, nothing else.

> print(dat)
                               query.smiles  units.label  recorded.measurement
1  CC1(C)OC[C@@H]([C@@]2(CO[Si](C)(C)C(C)(C)C)CC=CC(=O)O2)O1           µM                  59.9
2  O=C(NC1CC1)c1ccc(-c2nc3ccc4[nH]ncc4c3c3c2CCCC3)cc1           µM                  6.02
3  COC(=O)c1c(O)ccc2c1c1c(n2Cc2ccc(OC)cc2)C(=O)c2ccccc2C1=O           µM                  2.92
4  O=C1C(Cl)=C(Oc2ccc([N+](=O)[O-])cc2)C(=O)c2c(O)ccc(O)c21           µM                  16.1

GET /values?readout=TGI&system=SR leukemia&item= CC1(C)NCCC[C@]2(C)[C@H]3C=CC4=C5C[C@](C)(CO)CC[C@]5(C)CC[C@@]4(C)[C@]3(C)CC[C@@H]12
7.17
